EXPERIMENT_DESCRIPTION: Tested in vitro for inhibitory concentration against CCRF-CEM human Leukemic lymphoblast by using DHFR as primary target
REPORTED_ENDPOINT: pIC50
Lab note: report pIC50 as minus log10 of the concentration in molar units, number only.

Problem: Give its pIC50 value. Item: CCC(Cc1cnc2nc(N)nc(N)c2n1)c1ccc(C(=O)N[C@@H](CCC(=O)O)C(=O)O)cc1 (stereo partly specified) [Edatrexate]
Solution: 8.59
